The origin of these recorded values is patent US20250163186A1.

Molecular target: T1, human IgE (human, UniProt P01854 1-428)
T1 construct: written under the same molecule; also called IgE (Abcam ab65866); soluble IgE
T1 sequence (P01854 other isoform, or with tags, fused parts or gaps limits assumed, form in doubt): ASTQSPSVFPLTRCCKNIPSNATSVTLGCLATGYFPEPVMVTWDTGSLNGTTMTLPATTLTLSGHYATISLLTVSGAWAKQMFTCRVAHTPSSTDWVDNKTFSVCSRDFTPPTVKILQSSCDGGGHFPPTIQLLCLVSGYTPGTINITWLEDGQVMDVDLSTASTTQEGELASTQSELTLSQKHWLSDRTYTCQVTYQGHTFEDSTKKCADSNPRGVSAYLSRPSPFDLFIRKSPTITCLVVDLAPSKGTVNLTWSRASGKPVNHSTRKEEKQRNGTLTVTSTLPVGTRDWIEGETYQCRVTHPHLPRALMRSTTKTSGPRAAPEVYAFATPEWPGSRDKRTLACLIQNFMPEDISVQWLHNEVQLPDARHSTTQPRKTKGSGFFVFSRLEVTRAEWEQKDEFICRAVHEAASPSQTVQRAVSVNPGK
Test: ELISA, clone lysate on IgE-coated plate
Provide the recorded Confirm OD450 Duplicate1 for the entries that follow.
Give bare numbers.

Known Confirm OD450 Duplicate1 results, listed for orientation:
Binder: 4-2E2 (VHH, also called hzB10v40 VHH, CDR1 site 4 F to G) VHH: EVQLLESGGGEVQPGGSLRLSCVASGLTGSSYNMGWLRQAPGKEREFVGLSGSSSTSTYYAESVKGRFTISRDNAKNTVYLQMTSLRAEDTAVYYCAARRLLSTYWSDRSWDFWGQGTLVTVEP
Result Value: 0.579
//
Binder: 5C3 (VHH, also called hzB10v40 VHH, CDR1 site 5 S to D) VHH: EVQLLESGGGEVQPGGSLRLSCVASGLTFDSYNMGWLRQAPGKEREFVGLSGSSSTSTYYAESVKGRFTISRDNAKNTVYLQMTSLRAEDTAVYYCAARRLLSTYWSDRSWDFWGQGTLVTVEP
Result Value: 0.546
//
Binder: 3-1B9 (VHH, also called hzB10v40 VHH, CDR1 site 3 T to N) VHH: EVQLLESGGGEVQPGGSLRLSCVASGLNFSSYNMGWLRQAPGKEREFVGLSGSSSTSTYYAESVKGRFTISRDNAKNTVYLQMTSLRAEDTAVYYCAARRLLSTYWSDRSWDFWGQGTLVTVEP
Result Value: 0.585

Alright, here's another binder for you.
Given item 10E3 (VHH, also called hzB10v40 VHH, CDR1 site 10 G to S) VHH: EVQLLESGGGEVQPGGSLRLSCVASGLTFSSYNMSWLRQAPGKEREFVGLSGSSSTSTYYAESVKGRFTISRDNAKNTVYLQMTSLRAEDTAVYYCAARRLLSTYWSDRSWDFWGQGTLVTVEP , the value recorded as its Confirm OD450 Duplicate1 is 0.508
